target: Mcl-1 (Homo sapiens, UniProt Q07820)
Sequence (Q07820 1-327 limits assumed): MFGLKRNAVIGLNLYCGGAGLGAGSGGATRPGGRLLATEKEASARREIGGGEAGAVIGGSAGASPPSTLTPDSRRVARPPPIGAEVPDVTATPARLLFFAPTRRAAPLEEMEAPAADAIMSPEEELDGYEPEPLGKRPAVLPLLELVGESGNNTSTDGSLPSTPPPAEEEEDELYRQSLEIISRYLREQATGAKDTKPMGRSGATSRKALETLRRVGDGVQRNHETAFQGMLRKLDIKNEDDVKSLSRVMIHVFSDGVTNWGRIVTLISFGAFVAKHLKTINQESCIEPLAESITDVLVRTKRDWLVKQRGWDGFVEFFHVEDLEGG
Hi! Just check whether Ki is below 200 nM. Below gives label 1, equal or above gives label 0.

- O=S(=O)(c1cc(Cl)cc(Cl)c1)N(Cc1ccc(F)cc1)Cc1cccc(CN(Cc2ccc(F)cc2)S(=O)(=O)c2cc(Cl)cc(Cl)c2O)n1: label 1

Confirm or reject: Ki of CS(=O)(=O)c1ccc(CN(Cc2cccc(CNS(=O)(=O)c3cc(Cl)cc(Cl)c3O)c2)S(=O)(=O)c2cc(Cl)cc(Cl)c2O)cc1 lies strictly below 200 nM
label 1

Confirm or reject: Ki of O=C(c1ccc(CN(Cc2ccc(F)cc2)S(=O)(=O)c2cc(Cl)cc(Cl)c2O)cc1)N1CCN(c2cnccn2)CC1 lies strictly below 200 nM
label 0

Confirm or reject: Ki of CC(C)CN(Cc1ccc(CN(CC(C)C)S(=O)(=O)c2cc(Cl)cc(Cl)c2O)cc1)S(=O)(=O)c1cc(Cl)cc(Cl)c1O lies strictly below 200 nM
label 1

Confirm or reject: Ki of CC(C)CN(Cc1cc(Cl)cc(CN(CC(C)C)S(=O)(=O)c2cc(Cl)cc(Cl)c2O)c1)S(=O)(=O)c1cccnc1 lies strictly below 200 nM
label 1
